System: Rat2 fibroblasts stably transformed with v-Src/Hu c-Src fusion gene (Homo sapiens, UniProt P12931, cells depend on it, form not given)
Sequence (P12931 whole entry, change not shown, the tested form may be a part): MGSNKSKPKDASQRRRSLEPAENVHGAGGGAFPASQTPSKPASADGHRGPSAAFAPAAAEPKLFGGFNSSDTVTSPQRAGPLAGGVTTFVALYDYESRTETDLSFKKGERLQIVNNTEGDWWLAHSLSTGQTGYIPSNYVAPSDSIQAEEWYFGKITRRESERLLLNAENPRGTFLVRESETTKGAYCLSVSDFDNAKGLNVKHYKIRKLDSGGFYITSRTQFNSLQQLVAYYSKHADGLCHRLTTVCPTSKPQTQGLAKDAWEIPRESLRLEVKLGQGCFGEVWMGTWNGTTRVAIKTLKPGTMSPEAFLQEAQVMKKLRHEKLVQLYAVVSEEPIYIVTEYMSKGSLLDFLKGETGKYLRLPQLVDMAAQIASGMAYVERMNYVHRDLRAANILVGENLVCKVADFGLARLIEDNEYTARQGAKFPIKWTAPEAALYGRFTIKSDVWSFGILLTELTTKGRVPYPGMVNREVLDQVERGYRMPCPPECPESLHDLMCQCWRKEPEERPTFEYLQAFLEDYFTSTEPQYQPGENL
Experiment notes: Anchorage Independent Src-transformed Fibroblast Proliferation Assay
Assay type: cell-based, Rat
Details: suspension growth, MTS reagent on Day 5; read-out: anch-indep src-tx fib IC50
Assay metric: GI50 (µM)

The examples below pair each entry with its known result.
Compound | Assay metric | Reported value
COc1cc(Nc2c(C#N)cnc3cc(-c4ccc(CN5CCOCC5)o4)ccc23)c(Cl)cc1Cl | GI50 | 0.25
CCOC(=O)C1CCCN(Cc2ccc(-c3ccc4c(Nc5cc(OC)c(Cl)cc5Cl)c(C#N)cnc4c3)cc2)C1 (stereo not shown) | GI50 | 2.1
COc1cc(Nc2c(C#N)cnc3cc(-n4cccc4)ccc23)c(Cl)cc1Cl | GI50 | 2.11

a = COc1cc(Nc2c(C#N)cnc3cc(-c4ccc(N5CCOCC5)cc4)ccc23)c(Cl)cc1Cl
b = CCN1CCN(c2ccc(-c3ccc4c(Nc5cc(OC)c(Cl)cc5Cl)c(C#N)cnc4c3)nc2)CC1
c = COc1cc(Nc2c(C#N)cnc3cc(-c4ccc(CN5CCN(C)CC5)n4C)ccc23)c(Cl)cc1Cl
Arrange items by their GI50 values in increasing order. Please list the labels in the order you were asked to rank them.
a, b, c
(a: 0.11 µM, b: 0.27 µM, c: 6.8 µM)

* * *

The reader will find reported melting point values listed item by item below.

Query smiles | Assay metric | Reported value
COc1cc(Nc2c(C#N)cnc3cc(-c4cc(CN5CCOCC5)c(CN5CCOCC5)s4)ccc23)c(Cl)cc1Cl | melting point | 118 to 125 °C
COc1cc(Nc2c(C#N)cnc3cc(-c4cccc(NC(C)=O)c4)ccc23)c(Cl)cc1Cl | melting point | 262 to 263 °C
COc1cc(Nc2c(C#N)cnc3cc(-c4ccc(C=O)n4C)ccc23)c(Cl)cc1Cl | melting point | 200 °C (dec.)

Form: compound = `COc1cc(Nc2c(C#N)cnc3cc(-c4ccc(N5CCOCC5)nc4)ccc23)c(Cl)cc1Cl` ; melting point = > 260 °C

Form: compound = `COc1cc2c(Nc3ccc(Sc4nccn4C)c(Cl)c3)c(C#N)cnc2cc1-c1csc(CN2CCOCC2)c1` ; melting point = 238 to 240 °C

Form: compound = `COc1ccc(/C=C/c2ccc3c(Nc4cc(OC)c(Cl)cc4Cl)c(C#N)cnc3c2)cc1` ; melting point = 216 to 220 °C

Form: compound = `COCCN(C)c1ccc(-c2ccc3c(Nc4ccc(Sc5nccn5C)c(Cl)c4)c(C#N)cnc3c2)cn1` ; melting point = 224 to 226 °C

Form: compound = `COc1cc(Nc2c(C#N)cnc3cc(-c4ccc(C5OCCO5)o4)ccc23)c(Cl)cc1Cl` ; melting point = 224 to 229 °C

* * *

Assay metric: melting point

The examples below pair each entry with its known result.
Query smiles | melting point
COc1cc(Nc2c(C#N)cnc3cc(C#CCN4CCOCC4)ccc23)c(Cl)cc1Cl | 190 to 191 °C
Cn1ccnc1Sc1ccc(Nc2c(C#N)cnc3cc(-c4ccc(N5CCC(O)CC5)nc4)ccc23)cc1Cl | 178 to 180 °C
COc1cc(Nc2c(C#N)cnc3cc(-c4cccn4C(=O)OC(C)(C)C)ccc23)c(Cl)cc1Cl | 135 °C (dec.)
N#Cc1cnc2cc(-c3cncc(CN4CCOCC4)c3)ccc2c1Nc1ccc(Oc2ccccc2)cc1 | 185 to 187 °C
COc1cc(Nc2c(C#N)cnc3cc(-c4cc5ccccc5o4)ccc23)c(Cl)cc1Cl | 276 to 277 °C
CCOC(=O)C1CCN(c2ccc(-c3ccc4c(Nc5ccc(Sc6nccn6C)c(Cl)c5)c(C#N)cnc4c3)cn2)CC1 | 253 to 255 °C

Okay, now this compound:
Form: compound = `Cn1ccnc1Sc1ccc(Nc2c(C#N)cnc3cc(-c4ccc(CN5CCC(O)CC5)s4)ccc23)cc1Cl` ; melting point = 147 to 149 °C

* * *

Assay metric: melting point

Query smiles | melting point
N#Cc1cnc2cc(-c3csc(CN4CCOCC4)c3)ccc2c1Nc1ccc(Oc2ccccc2)cc1 | 221 to 223 °C
COc1cc(Nc2c(C#N)cnc3cc(-c4ccc(CN(C)C)cc4)ccc23)c(Cl)cc1Cl | 187 to 189 °C
Cn1ccnc1Sc1ccc(Nc2c(C#N)cnc3cc(-c4ccc(CN5CCCCC5)cc4)ccc23)cc1Cl | 158 to 160 °C
Cn1ccnc1Sc1ccc(Nc2c(C#N)cnc3cc(-c4ccc(CN5CCN(CCO)CC5)o4)ccc23)cc1Cl | 206 to 209 °C
N#Cc1cnc2cc(-c3ccc(-c4ccccn4)s3)ccc2c1Nc1ccc(Cl)cc1Cl | 270 °C (dec.)
CN(C)CC#Cc1ccc2c(Nc3ccc(Cl)cc3Cl)c(C#N)cnc2c1 | 144 to 145 °C

Form: molecule = `COCCOc1ccc(-c2ccc3c(Nc4cc(OC)c(Cl)cc4Cl)c(C#N)cnc3c2)cc1` ; melting point = 205 to 207 °C

* * *

System: Rat2 fibroblasts stably transformed with v-Src/Hu c-Src fusion gene (Homo sapiens, UniProt P12931, cells depend on it, form not given)
Experiment notes: Anchorage Independent Src-transformed Fibroblast Proliferation Assay
Assay type: cell-based, Rat
Details: suspension growth, MTS reagent on Day 5; read-out: anch-indep src-tx fib IC50
Assay metric: GI50

The examples below pair each entry with its known result.
Molecule | Assay metric | Reported value
COc1cc(Nc2c(C#N)cnc3cc(-c4cc5ccccc5s4)ccc23)c(Cl)cc1Cl [Example 120] | GI50 | > 10 µM
COc1cc(Nc2c(C#N)cnc3cc(-c4cnc(C=O)n4C)c(OC)cc23)c(Cl)cc1Cl [Example 228] | GI50 | > 10 µM
COc1cc(Nc2c(C#N)cnc3cc(-c4cccc5ccccc45)ccc23)c(Cl)cc1Cl [Example 116] | GI50 | > 10 µM
COc1cc(Nc2c(C#N)cnc3cc(-c4cccc(N)c4)ccc23)c(Cl)cc1Cl [Example 174] | GI50 | 5.6 µM
CN(C)CC#Cc1ccc2c(Nc3ccc(Cl)cc3Cl)c(C#N)cnc2c1 [Example 15] | GI50 | > 10 µM

Form: molecule = COc1cc(Nc2c(C#N)cnc3cc(-c4ccc(C=O)n4C)ccc23)c(Cl)cc1Cl [Example 69] ; GI50 = > 10 µM

Form: molecule = COc1cc(Nc2c(C#N)cnc3cc(-c4ccc(CNCCc5ccccn5)o4)ccc23)c(Cl)cc1Cl [Example 74] ; GI50 = 1.4 µM

Form: molecule = COc1cc(Nc2c(C#N)cnc3cc(-c4cnc(N5CCOCC5)nc4)ccc23)c(Cl)cc1Cl [Example 186] ; GI50 = > 10 µM

Form: molecule = COC(=O)C1CCN(Cc2ccc(-c3ccc4c(Nc5cc(OC)c(Cl)cc5Cl)c(C#N)cnc4c3)nc2)CC1 [Example 176] ; GI50 = 0.09 µM

Form: molecule = N#Cc1cnc2cc(C#CCCCN3CCOCC3)ccc2c1Nc1ccc(Cl)cc1Cl [Example 11] ; GI50 = > 10 µM

* * *

The reader will find reported GI50 values listed item by item below.
System: Rat2 fibroblasts stably transformed with v-Src/Hu c-Src fusion gene (Homo sapiens, UniProt P12931, cells depend on it, form not given)
Experiment notes: Anchorage Independent Src-transformed Fibroblast Proliferation Assay
Type: cell-based, Rat
Details: suspension growth, MTS reagent on Day 5; read-out: anch-indep src-tx fib IC50

The examples below pair each entry with its known result.
Molecule | Reported value
N#Cc1cnc2cc(C=CCCCCN3CCOCC3)ccc2c1Nc1ccc(Cl)cc1Cl (mixture of isomers) | > 10 µM
COc1cc(Nc2c(C#N)cnc3cc(C#Cc4ccc(C)cc4)ccc23)c(Cl)cc1Cl | > 10 µM

Okay, now this molecule:
Form: molecule = `COc1cc(Nc2c(C#N)cnc3cc(/C=C/C(=O)OC(C)(C)C)ccc23)c(Cl)cc1Cl` ; GI50 = > 10 µM

* * *

Assay metric: melting point

Query smiles | melting point
COc1cc(Nc2c(C#N)cnc3cc(-c4ccc(CN5CCN(C)CC5)cn4)ccc23)c(Cl)cc1Cl | 212 to 215 °C
COc1cc(Nc2c(C#N)cnc3cc(-c4ccc(CN5CCC[C@@H]5C(N)=O)o4)ccc23)c(Cl)cc1Cl | 121 to 126 °C
Cn1ccnc1Sc1ccc(Nc2c(C#N)cnc3cc(-c4ccc(N5CCN(CCO)CC5)nc4)ccc23)cc1Cl | 239 to 241 °C
Cn1ccnc1Sc1ccc(Nc2c(C#N)cnc3cc(-c4ccc(CN5CCCCC5)s4)ccc23)cc1Cl | 100 °C (dec.)
COC(=O)C1CCN(Cc2ccc(-c3ccc4c(Nc5cc(OC)c(Cl)cc5Cl)c(C#N)cnc4c3)nc2)CC1 | 186 to 188 °C
COc1cc(Nc2c(C#N)cnc3cc(-c4cnc(C=O)n4C)c(OC)cc23)c(Cl)cc1Cl | 141 to 144 °C
Cn1ccnc1Sc1ccc(Nc2c(C#N)cnc3cc(-c4ccc(CN5CCN(CCO)CC5)s4)ccc23)cc1Cl | 145 to 147 °C
CN(CCO)Cc1ccc(-c2ccc3c(Nc4ccc(Sc5nccn5C)c(Cl)c4)c(C#N)cnc3c2)nc1 | 197 to 199 °C
COc1cc(Nc2c(C#N)cnc3cc(-c4ccc(CNCCS(=O)(=O)c5ccccc5)o4)ccc23)c(Cl)cc1Cl | 123 to 128 °C

Okay, now this compound:
Form: compound = `N#Cc1cnc2cc(-c3csc(CN4CCOCC4)c3)ccc2c1Nc1ccc(Cc2ccccc2)cc1` ; melting point = 228 to 230 °C

Value source: patent US20020026052A1
